target: CaBem1-D1; assay: SPOT peptide array binding signal intensity (averaged, normalized) (arbitrary units (background-subtracted, floor 0; scale differs between SH3 domains)); higher = stronger binding of the SH3 domain to the peptide
Readings of SPOT peptide array binding signal intensity for the listed binders
In your answer, state the number alone without any accompanying words.

AVPPPPPPPPLPESL: 1

Switching to the query record.
For record EVTPKVPERPSRRKT the listed SPOT peptide array binding signal intensity is 24
